System: CD4^+ T cell adhesion to LN
Experiment: Inhibition of activated CD4+ T cell adhesion to laminin (LN)
Format: cell-based, human
Settings: 0.2 mM peptides and surrogates; mAb anti-CD29 1/200, anti-VLA5 1/400 diluted; * P<0.05
List of % inhibition of adhesion of activated CD4^+ T cell to LN values.
QUANTITY MEASURED: % inhibition of adhesion of activated CD4^+ T cell to LN

| MOLECULE | RESULT VALUE |
| --- | --- |
| N=C(N)NCCCCC(=O)NCCCCCC(=O)O | 0% |
| NCCCCCC(=O)NCCCCC(=O)O [SFN-70, reference compound] | 0% |
| N=C(N)NCCCCCC(=O)NCCCCC(=O)O | 0% |
| N=C(N)NCCCCC(=O)NCC(=O)NCCC(=O)O | 0% |
| N=C(N)NCCCC(=O)NCCC(=O)NCCC(=O)O | 0% |
| N=C(N)NCCCCCC(=O)NCCCCCC(=O)O | 0% |

----------
System: CD4^+ T cell adhesion to 120 kD fragment of FN
Assay: Inhibition of activated CD4+ T cell adhesion to 120 kD fragment of FN
Format: cell-based, human
Conditions: 0.2 mM peptides and surrogates; mAb anti-CD29 1/200, anti-VLA5 1/400 diluted; PMA activated; none 43 ± 4
Assign class by % Adhesion of activated CD4^+ T cell to 120 kD fragment of FN: not lower than 20% means Met; lower than 20% means Not met.

| MOLECULE | LABEL CLASS |
| --- | --- |
| NCCCCCC(=O)NCCCCC(=O)O [SFN-70, reference compound] | Met |
| N=C(N)NCCCCCC(=O)NCCCCCC(=O)O | Met |
| N=C(N)NCCCC(=O)NCCC(=O)NCCC(=O)O | Met |
| N=C(N)NCCCCC(=O)NCCCCCC(=O)O | Met |
| N=C(N)NCCCCC(=O)NCC(=O)NCCC(=O)O | Not met |
| N=C(N)NCCCCCC(=O)NCCCCC(=O)O | Met |

----------
Molecular target: platelet GPIIb-IIIa receptor (Homo sapiens, UniProt P05106+P08514)
Construct: Platelet concentrates were prepared from human whole blood; endogenous in cells
Sequence (P08514 32-887 limits assumed): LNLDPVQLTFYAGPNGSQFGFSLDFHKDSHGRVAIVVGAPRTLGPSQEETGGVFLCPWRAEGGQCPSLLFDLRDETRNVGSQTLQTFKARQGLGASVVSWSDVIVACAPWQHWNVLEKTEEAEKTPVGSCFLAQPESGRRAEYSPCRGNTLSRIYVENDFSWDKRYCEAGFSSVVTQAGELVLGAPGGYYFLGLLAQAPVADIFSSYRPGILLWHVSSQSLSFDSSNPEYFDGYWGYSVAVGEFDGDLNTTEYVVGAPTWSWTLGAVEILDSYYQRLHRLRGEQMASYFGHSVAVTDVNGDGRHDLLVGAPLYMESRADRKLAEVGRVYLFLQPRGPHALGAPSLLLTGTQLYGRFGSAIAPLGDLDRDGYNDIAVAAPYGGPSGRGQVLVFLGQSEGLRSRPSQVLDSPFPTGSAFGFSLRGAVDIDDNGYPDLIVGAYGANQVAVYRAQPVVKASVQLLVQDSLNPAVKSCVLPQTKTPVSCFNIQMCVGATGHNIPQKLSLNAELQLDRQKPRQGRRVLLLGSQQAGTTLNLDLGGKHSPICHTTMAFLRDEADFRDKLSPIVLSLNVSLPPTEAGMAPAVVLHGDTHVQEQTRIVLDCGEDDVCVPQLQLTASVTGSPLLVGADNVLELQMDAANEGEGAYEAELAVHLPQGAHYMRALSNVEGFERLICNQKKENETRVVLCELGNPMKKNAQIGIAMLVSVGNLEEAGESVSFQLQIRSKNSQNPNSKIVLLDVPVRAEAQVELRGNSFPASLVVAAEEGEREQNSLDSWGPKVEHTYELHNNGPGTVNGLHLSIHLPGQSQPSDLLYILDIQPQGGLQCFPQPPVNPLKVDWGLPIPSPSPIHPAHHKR
Sequence (P08514 891-1039 limits assumed): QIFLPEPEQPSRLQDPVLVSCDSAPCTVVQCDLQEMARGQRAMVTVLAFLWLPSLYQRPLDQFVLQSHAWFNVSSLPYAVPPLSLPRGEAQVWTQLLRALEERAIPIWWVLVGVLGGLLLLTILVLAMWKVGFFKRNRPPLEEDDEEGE
Sequence (P05106 27-788): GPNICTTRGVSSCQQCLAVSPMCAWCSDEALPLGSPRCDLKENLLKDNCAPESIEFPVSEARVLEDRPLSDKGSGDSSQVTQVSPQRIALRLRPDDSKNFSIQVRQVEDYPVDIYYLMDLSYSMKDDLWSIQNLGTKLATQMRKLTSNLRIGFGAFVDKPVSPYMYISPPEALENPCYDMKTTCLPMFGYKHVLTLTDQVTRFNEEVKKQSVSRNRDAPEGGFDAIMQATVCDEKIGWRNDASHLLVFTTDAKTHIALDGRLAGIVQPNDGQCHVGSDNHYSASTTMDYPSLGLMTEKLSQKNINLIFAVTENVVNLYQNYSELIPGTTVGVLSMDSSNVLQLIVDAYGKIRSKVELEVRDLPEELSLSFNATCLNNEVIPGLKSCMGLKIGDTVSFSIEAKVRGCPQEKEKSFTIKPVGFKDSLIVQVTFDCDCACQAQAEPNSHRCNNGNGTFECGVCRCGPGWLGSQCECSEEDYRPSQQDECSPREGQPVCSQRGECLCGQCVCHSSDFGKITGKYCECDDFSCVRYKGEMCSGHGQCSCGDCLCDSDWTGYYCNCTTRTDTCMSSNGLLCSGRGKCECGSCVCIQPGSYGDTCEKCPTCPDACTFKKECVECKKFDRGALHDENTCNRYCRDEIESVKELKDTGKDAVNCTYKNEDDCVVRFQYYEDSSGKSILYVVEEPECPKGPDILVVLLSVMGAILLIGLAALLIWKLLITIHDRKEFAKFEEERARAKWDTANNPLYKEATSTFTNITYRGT
Test: Inhibition of ADP-induced platelet aggregation (platelet rich plasma)
Settings: FIG. 3, ADP-induced
Experimental: To investigate the inhibitory role of the RGD analogues on adhesion, the platelet GPIIb-IIIa receptor which mediates platelet aggregation upon activation was used as a model. Platelet concentrates were prepared from human whole blood in 10% adenine-citrate-dextrose in Fenwall bags (Baxter Travenol, Israel) followed by standard AABB protocol. Platelet rich plasma was prepared by centrifugation (2500 rpm for 5 min). Samples of platelets were counted in a Minos AST Cell Counter (Levoiselle, France). […]
pIC50: −log10 of the molar value.
QUANTITY MEASURED: pIC50

| SMILES CODE | RESULT VALUE |
| --- | --- |
| N=C(N)NCCCCCC(=O)NCCCCC(=O)O | 3.52 |
